Biological target: trypsin
Assay: monoclonal phage TRF
Each record here notes measured Tryspin binding signal (FU).
Please state the figure in FU; there is no need to write the unit.

>>> data_value("KB_A01 (scFv, V domains shown) VH: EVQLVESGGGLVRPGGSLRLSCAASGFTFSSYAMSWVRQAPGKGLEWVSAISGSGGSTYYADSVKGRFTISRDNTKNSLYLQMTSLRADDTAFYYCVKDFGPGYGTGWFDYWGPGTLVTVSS VL: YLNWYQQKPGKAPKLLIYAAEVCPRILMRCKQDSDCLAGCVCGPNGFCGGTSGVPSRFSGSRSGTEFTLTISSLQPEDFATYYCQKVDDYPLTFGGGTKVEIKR")
20200
>>> data_value("KB_A10 (scFv, V domains shown) VH: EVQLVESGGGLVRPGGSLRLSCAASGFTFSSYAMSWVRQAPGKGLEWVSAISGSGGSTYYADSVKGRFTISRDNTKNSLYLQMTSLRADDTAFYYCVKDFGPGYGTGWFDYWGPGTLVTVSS VL: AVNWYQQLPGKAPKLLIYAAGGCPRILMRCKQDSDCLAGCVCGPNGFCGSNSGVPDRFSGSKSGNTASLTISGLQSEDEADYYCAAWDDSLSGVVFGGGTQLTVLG")
38800

Reported Tryspin binding signal (FU) for KB_A06 (scFv, V domains shown) VH: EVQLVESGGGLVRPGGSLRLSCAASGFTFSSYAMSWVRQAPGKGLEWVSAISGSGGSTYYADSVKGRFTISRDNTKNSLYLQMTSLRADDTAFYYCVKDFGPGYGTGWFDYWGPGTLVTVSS VL: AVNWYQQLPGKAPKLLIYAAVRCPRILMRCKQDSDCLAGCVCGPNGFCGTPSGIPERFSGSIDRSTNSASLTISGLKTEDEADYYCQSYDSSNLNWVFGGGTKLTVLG was 24400
